This collection of values is drawn from patent US11878975B2.

# STUDY_TARGET: human TLR7 (Homo sapiens, UniProt Q9NYK1)
# Construct: host or cells: HEK-Blue cells
# Sequence (Q9NYK1 27-1049): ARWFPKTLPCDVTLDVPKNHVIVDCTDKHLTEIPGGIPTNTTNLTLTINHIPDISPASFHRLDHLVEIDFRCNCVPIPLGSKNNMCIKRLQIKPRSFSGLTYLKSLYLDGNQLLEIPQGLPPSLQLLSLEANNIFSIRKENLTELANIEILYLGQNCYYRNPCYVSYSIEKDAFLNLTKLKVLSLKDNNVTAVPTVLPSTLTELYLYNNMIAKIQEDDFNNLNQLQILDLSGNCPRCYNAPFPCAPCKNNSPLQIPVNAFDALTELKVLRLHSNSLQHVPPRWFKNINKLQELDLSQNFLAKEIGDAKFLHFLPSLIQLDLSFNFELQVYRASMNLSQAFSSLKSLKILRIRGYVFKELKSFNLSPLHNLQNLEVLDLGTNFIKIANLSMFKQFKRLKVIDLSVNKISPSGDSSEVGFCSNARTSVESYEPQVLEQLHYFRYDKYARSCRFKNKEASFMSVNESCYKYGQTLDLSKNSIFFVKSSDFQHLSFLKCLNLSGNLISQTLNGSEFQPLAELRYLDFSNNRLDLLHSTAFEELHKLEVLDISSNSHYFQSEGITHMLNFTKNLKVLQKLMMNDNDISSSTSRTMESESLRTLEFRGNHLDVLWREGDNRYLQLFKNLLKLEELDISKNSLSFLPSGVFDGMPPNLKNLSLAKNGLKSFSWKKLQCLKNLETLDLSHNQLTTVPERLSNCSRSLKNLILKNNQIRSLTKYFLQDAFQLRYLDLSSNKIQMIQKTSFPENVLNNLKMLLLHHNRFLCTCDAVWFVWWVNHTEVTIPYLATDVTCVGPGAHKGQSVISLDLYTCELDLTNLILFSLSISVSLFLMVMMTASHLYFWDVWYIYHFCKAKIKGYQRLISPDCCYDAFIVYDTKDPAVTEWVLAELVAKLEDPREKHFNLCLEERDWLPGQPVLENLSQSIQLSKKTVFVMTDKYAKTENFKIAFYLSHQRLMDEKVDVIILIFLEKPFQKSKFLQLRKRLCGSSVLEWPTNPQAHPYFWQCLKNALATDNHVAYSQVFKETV
# TEST_DETAILS: TLR7 inhibition reporter assay (HEK-Blue cells, SEAP reporter, gardiquimod stimulation)
# Type: cell-based
# MEASUREMENT_SETUP: HEK-Blue cells overexpressing human TLR7, SEAP reporter, gardiquimod 7.5 μM
QUANTITY_NAME: IC50 (nM)

The following compounds have reported results that may help.
{"COMPOUND": "Cc1c(-c2[nH]c3ccc(CC4CCCN4C4CCOCC4)cc3c2C(C)C)cn2cnnc2c1C (stereo not drawn) [Example 429]", "IC50 (nM)": 11}
{"COMPOUND": "Cc1cc(-c2[nH]c3ccc(C4CCC(C(=O)N5CCOCC5)CC4)cc3c2C(C)C)cn2ncnc12 (stereo not drawn) [Example 161]", "IC50 (nM)": 3}
{"COMPOUND": "Cc1c(-c2[nH]c3ccc(C4CN(CC(N)=O)CCO4)cc3c2C(C)C)cn2ncnc2c1C (stereo not drawn) [Example 319]", "IC50 (nM)": 14}
{"COMPOUND": "Cc1c(-c2[nH]c3ccc(C4CN(CC(=O)N(C)C)C4)cc3c2C(C)C)cn2ncnc2c1C [Example 556]", "IC50 (nM)": 6}

[a] Cc1c(-c2[nH]c3ccc(C4CC5CN(C)CC5C4)cc3c2C(C)C)cn2cnnc2c1C (stereo not drawn) [Example 559]
[b] COc1cc(-c2[nH]c3ccc(C4CCC(NCC(N)=O)CC4)cc3c2C(C)C)cn2ncnc12 (stereo not drawn) [Example 109]
Identify the item whose IC50 is the smaller number: a or b To answer, give the label that identifies your chosen option.
b

[1] COc1ccc(-c2[nH]c3ccc(C4CCC(O)CC4)cc3c2C(C)C)cc1OC (stereo not drawn) [Example 451]
[2] Cc1c(-c2[nH]c3ccc(C4CNC(C)(C)CO4)cc3c2C(C)C)cn2ncnc2c1C (stereo not drawn) [Example 371]
Among 1 and 2 , which shows a numerically higher IC50 result? Kindly state the label of the option you pick.
1

[I] Cc1cc(-c2[nH]c3ccc(C4CCC(C)(O)CC4)cc3c2C(C)C)cc(C)n1 (single isomer, unassigned) [Example 169]
[II] Cc1c(-c2[nH]c3ccc(C4CC(N)C4)cc3c2C(C)C)cn2ncnc2c1C (stereo not drawn) [Example 541]
[III] COc1cc(-c2[nH]c3ccc(C4CCC(NC(=O)CN5CCCC5)CC4)cc3c2C(C)C)cn2ncnc12 (stereo not drawn) [Example 133]
Ascending sort, IC50. Write the labels, ordered according to the request.
III, II, I

----------
# STUDY_TARGET: human TLR9 (Homo sapiens)
# Sequence (Q9NR96 26-1032): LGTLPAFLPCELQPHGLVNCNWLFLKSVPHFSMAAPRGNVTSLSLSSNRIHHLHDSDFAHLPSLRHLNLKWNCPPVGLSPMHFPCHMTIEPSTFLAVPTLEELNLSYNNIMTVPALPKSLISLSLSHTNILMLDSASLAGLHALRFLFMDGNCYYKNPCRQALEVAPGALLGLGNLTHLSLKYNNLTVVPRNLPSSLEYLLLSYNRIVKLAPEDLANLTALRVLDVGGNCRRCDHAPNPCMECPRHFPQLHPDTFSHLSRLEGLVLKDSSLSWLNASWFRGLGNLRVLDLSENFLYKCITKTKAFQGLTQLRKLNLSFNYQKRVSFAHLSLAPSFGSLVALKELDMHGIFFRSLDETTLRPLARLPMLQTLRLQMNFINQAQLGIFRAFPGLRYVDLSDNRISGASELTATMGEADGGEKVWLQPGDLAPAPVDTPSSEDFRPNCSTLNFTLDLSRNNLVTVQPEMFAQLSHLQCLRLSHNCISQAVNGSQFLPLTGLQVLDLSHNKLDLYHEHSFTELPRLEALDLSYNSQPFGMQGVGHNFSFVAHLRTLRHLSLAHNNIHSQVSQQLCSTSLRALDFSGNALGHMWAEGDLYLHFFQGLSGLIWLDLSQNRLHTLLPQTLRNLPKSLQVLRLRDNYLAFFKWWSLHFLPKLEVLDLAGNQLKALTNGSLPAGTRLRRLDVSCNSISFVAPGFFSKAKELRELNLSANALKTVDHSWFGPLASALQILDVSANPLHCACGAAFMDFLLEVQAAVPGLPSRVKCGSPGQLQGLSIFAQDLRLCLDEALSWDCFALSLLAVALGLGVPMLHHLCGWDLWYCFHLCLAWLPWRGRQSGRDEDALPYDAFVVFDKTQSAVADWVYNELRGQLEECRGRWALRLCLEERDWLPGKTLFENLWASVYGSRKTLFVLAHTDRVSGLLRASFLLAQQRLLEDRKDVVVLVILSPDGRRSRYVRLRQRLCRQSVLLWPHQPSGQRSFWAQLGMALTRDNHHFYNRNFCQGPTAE
# TEST_DETAILS: TLR9 inhibition reporter assay (HEK-Blue cells, SEAP reporter, ODN2006 stimulation)
# MEASUREMENT_SETUP: HEK-Blue cells overexpressing human TLR9, SEAP reporter, ODN2006 5 nM
pIC50: −log10 of the molar value.
QUANTITY_NAME: pIC50

{"COMPOUND": "COc1cc(-c2[nH]c3ccc(C4CCC(NC(=O)CNC5COC5)CC4)cc3c2C(C)C)cn2ncnc12 (stereo not shown) [Example 137]", "QUANTITY_NAME": "pIC50", "MEASURED_VALUE": 4.58}
{"COMPOUND": "Cc1cc(-c2[nH]c3ccc(C4CCC(N)CC4)cc3c2C(C)C)cn2ncnc12 (single isomer, unassigned) [Example 3]", "QUANTITY_NAME": "pIC50", "MEASURED_VALUE": 5.89}

[A] CNC(=O)CNC1CCC(c2ccc3[nH]c(-c4cc(C)nc(C)c4)c(C(C)C)c3c2)CC1 (single isomer, unassigned) [Example 179]
[B] Cc1c(-c2[nH]c3ccc(CC4CN(C(=O)CN(C)C)C4)cc3c2C(C)C)cn(C)c(=O)c1C
// pick min by pIC50: A , B // respond with label for picked entry
B

----------
# STUDY_TARGET: human TLR7 (Homo sapiens, UniProt Q9NYK1)
# TEST_DETAILS: TLR7 inhibition reporter assay (HEK-Blue cells, SEAP reporter, gardiquimod stimulation)
# MEASUREMENT_SETUP: HEK-Blue cells overexpressing human TLR7, SEAP reporter, gardiquimod 7.5 μM
pIC50: −log10 of the molar value.
QUANTITY_NAME: pIC50

Below are worked cases with known answers.
{"MOLECULE": "Cc1c(-c2[nH]c3ccc(C4CCCNC4)cc3c2C(C)C)cn2ncnc2c1C (stereo not drawn) [Example 189]", "MEASURED_VALUE": 9.47}
{"MOLECULE": "COc1cc(-c2[nH]c3ccc(C4CCC(N(C)C(C)C)C4)cc3c2C(C)C)cn2ncnc12 (single isomer, unassigned) [Example 275]", "MEASURED_VALUE": 9.07}
{"MOLECULE": "COc1cc(-c2[nH]c3ccc(C4CN(C(=O)CNC5(C)COC5)CCO4)cc3c2C(C)C)cn2ncnc12 (stereo not drawn) [Example 361]", "MEASURED_VALUE": 9.04}
{"MOLECULE": "Cc1c(-c2[nH]c3ccc(C4CNC4)cc3c2C(C)C)cn2ncnc2c1C [Example 545]", "MEASURED_VALUE": 8.70}
{"MOLECULE": "Cc1cc(-c2[nH]c3ccc(C4CCCCC4)cc3c2C(C)C)cn(C)c1=O [Example 470]", "MEASURED_VALUE": 6.25}

[a] Cc1c(-c2[nH]c3ccc(CC4CN(CCS(C)(=O)=O)C4)cc3c2C(C)C)cn2ncnc2c1C [Example 437]
[b] Cc1cc(-c2[nH]c3ccc(C4CCC(O)CC4)cc3c2C(C)C)cc(C)n1 (single isomer, unassigned) [Example 171]
Pick one: a or b . Which one has the lower reported pIC50? Answer by quoting the chosen item's label.
b
(b: 7.57, a: 8.10)

[P] CNC(=O)CN1CCOC(c2ccc3[nH]c(-c4cn5ncnc5c(C)c4C)c(C(C)C)c3c2)C1 (stereo not drawn) [Example 311]
[Q] Cc1cc(-c2[nH]c3ccc(CC4CCCN4Cc4ccccc4)cc3c2C(C)C)cn2ncnc12 (single isomer, unassigned) [Example 397]
Returns: the argument ( P or Q ) having the larger pIC50. Write the label of whichever entry you select.
Q

[a] COc1cc(-c2[nH]c3ccc(C4CCC(NC(=O)CNC5(C)COC5)CC4)cc3c2C(C)C)cn2ncnc12 (stereo not drawn) [Example 135]
[b] COc1cc(-c2[nH]c3ccc(C4CCC(N(C)OC)CC4)cc3c2C(C)C)cn2ncnc12 (stereo not drawn) [Example 99]
[c] Cc1c(-c2[nH]c3ccc(C4CN(CCS(C)(=O)=O)C4)cc3c2C(C)C)cn2ncnc2c1C [Example 543]
Hello, I need these entries ordered by pIC50, highest reading first. Thanks! Answer format: the labels, ordered as requested.
a, c, b
(a: 8.70, c: 8.40, b: 8.15)
